Target: GluN1/GluN2B NMDA receptor (Rattus norvegicus, UniProt P35439+Q00960)
Sequence (Q00960 27-1482, other chains not shown): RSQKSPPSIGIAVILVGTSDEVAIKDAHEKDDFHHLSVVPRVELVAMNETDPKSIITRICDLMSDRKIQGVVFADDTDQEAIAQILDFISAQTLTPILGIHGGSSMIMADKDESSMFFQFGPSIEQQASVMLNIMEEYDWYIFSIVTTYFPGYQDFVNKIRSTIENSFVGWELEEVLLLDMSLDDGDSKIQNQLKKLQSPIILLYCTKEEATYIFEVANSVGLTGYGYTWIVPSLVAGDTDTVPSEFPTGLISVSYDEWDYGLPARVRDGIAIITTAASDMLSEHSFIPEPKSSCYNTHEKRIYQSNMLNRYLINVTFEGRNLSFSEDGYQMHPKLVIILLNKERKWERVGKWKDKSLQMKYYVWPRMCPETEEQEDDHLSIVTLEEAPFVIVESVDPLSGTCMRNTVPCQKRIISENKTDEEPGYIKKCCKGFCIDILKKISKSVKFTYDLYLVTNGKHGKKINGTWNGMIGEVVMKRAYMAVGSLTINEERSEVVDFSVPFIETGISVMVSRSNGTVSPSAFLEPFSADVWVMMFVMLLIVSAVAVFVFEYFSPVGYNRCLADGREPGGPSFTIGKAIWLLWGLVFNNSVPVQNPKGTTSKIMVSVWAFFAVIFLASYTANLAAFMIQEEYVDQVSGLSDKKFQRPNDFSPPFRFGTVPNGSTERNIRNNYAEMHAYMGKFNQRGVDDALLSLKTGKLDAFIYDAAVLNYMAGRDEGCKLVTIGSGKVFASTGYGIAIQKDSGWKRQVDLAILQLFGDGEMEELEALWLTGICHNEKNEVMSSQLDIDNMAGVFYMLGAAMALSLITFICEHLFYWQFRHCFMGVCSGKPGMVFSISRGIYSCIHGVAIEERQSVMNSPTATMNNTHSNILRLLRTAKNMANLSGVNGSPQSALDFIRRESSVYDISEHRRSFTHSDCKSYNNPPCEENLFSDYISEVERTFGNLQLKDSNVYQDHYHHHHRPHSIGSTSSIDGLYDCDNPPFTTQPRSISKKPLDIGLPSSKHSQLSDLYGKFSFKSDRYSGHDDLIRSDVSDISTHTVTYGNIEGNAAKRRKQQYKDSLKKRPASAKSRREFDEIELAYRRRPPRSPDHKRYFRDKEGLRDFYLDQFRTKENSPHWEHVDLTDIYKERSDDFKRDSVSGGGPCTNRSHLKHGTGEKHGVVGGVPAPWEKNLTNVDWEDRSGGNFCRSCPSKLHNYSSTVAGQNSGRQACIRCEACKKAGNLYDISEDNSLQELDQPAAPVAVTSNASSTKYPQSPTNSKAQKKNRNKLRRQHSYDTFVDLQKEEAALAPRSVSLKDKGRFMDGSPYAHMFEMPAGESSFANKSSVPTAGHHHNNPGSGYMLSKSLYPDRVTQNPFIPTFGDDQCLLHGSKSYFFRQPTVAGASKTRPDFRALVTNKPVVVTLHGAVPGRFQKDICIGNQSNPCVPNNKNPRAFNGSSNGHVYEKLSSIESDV
Format: cell-based
Conditions: 10 μM L-glutamate plus 10 μM glycine, ± s.e.m., n ≥ 4
measure-name: % Max. Inh. GluN1/GluN2B (%)
Answers are plain numbers, in %.

molecule=O=C(O)c1cc2cc(-c3ccccc3)ccc2c(I)c1O measurement_target="GluN1/GluN2B NMDA receptor (Rattus norvegicus, UniProt P35439+Q00960)" reported=82.1
molecule="O=C(O)c1cc2cc(Br)ccc2c(Br)c1O [UBP552, 1,6-Dibromo-2-hydroxy-3-naphthoic acid]" measurement_target="GluN1/GluN2B NMDA receptor (Rattus norvegicus, UniProt P35439+Q00960)" reported=108.3

Item under review: O=C(O)c1cc(Br)c2ccc(Br)cc2c1 . Reported % Max. Inh. GluN1/GluN2B?
84.4

----------
Target: GluN1/GluN2D NMDA receptor (Rattus norvegicus, UniProt P35439+Q62645)
Sequence (Q62645 28-1323, other chains not shown): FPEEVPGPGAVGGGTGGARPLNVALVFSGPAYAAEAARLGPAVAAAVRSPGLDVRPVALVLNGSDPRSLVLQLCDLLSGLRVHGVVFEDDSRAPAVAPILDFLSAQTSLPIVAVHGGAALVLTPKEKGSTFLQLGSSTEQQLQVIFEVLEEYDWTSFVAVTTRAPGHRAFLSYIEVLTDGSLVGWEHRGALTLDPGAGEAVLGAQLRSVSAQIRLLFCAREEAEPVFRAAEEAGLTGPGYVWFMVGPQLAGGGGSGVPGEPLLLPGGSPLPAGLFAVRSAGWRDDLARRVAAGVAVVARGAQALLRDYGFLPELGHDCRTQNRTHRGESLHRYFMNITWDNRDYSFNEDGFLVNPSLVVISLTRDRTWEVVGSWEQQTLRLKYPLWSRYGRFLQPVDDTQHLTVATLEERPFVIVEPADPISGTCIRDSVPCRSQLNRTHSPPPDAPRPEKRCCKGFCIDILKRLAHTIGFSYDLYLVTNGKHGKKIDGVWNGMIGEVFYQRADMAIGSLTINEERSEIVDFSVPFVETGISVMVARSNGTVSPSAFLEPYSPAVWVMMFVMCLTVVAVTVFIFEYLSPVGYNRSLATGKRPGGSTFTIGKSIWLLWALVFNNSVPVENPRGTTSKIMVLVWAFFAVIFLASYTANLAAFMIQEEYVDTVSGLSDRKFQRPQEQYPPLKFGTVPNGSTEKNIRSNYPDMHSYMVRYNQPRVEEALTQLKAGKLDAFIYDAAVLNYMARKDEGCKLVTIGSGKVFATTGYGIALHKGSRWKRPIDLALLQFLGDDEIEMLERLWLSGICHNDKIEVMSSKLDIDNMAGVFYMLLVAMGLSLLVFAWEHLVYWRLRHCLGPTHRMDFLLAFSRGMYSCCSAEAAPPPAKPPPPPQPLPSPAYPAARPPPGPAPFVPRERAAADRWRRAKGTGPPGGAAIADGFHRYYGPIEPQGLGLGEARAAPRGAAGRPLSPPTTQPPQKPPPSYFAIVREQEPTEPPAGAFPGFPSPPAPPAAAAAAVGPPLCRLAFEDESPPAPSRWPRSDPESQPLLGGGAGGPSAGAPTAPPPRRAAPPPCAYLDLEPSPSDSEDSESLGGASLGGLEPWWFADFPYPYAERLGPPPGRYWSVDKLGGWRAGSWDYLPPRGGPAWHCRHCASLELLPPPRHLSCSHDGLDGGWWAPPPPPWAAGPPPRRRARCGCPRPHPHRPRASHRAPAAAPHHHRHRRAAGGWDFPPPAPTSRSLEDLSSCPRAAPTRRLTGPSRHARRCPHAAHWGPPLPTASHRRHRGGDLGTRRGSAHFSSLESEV
Assay type: cell-based
Conditions: IC50 GluN1/GluN2D, [Gly] 10 μM, [L-Glu] 300 μM
measure-name: IC50 (µM)
Numbers only, in µM.

API: value(readout= IC50, system= GluN1/GluN2D NMDA receptor (Rattus norvegicus, UniProt P35439+Q62645), query= O=C(O)c1cc2cc(Br)ccc2c(Br)c1O [UBP552, 1,6-Dibromo-2-hydroxy-3-naphthoic acid] )
3.35

----------
Biological target: GluN1/GluN2A NMDA receptor (Rattus norvegicus, UniProt P35439+Q00959)
Sequence (Q00959 23-1464, other chains not shown): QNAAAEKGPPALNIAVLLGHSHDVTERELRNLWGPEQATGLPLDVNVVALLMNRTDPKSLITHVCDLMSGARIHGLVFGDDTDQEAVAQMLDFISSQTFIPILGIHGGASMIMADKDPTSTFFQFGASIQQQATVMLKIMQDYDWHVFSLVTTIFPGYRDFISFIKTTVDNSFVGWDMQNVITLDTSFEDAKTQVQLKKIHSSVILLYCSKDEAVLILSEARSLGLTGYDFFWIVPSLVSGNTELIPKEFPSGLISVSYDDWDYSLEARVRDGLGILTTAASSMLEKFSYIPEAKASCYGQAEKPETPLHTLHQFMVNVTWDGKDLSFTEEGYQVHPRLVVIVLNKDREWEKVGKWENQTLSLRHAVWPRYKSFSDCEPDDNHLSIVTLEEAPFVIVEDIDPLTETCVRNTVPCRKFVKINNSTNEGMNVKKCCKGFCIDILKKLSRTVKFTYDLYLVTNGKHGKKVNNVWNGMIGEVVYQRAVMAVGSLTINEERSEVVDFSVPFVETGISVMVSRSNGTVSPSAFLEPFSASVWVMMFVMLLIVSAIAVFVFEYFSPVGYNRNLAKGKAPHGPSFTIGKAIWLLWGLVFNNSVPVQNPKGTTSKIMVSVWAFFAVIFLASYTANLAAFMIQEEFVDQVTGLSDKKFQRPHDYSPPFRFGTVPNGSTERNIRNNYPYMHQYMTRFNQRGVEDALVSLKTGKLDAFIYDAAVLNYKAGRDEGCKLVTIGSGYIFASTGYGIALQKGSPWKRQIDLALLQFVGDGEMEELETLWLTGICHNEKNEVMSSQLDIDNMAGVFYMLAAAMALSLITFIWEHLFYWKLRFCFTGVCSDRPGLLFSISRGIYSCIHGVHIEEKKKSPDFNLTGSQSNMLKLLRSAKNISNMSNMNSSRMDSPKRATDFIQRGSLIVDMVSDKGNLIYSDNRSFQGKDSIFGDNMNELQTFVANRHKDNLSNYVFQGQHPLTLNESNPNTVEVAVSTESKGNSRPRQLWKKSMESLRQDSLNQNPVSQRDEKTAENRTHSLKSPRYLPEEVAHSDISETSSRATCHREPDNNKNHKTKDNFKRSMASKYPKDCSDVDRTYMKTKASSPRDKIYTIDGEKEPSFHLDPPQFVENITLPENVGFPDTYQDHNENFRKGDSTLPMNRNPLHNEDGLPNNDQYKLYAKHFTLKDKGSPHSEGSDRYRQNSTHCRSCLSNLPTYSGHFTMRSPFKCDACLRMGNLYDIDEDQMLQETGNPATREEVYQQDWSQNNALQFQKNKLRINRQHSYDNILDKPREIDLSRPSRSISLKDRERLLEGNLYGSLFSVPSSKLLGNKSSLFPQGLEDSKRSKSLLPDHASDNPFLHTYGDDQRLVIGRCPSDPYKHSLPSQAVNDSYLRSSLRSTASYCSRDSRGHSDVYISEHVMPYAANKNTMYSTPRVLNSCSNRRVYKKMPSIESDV
Type: cell-based
Conditions: IC50 GluN1/GluN2A, [Gly] 300 μM, [L-Glu] 300 μM
measure-name: pIC50
Numbers only, as −log10 of the molar value.

Would you mind telling me what pIC50 value was observed for O=C(O)c1cc2cc(Br)ccc2c(Br)c1O [UBP552, 1,6-Dibromo-2-hydroxy-3-naphthoic acid] ?
4.81

----------
Molecular target: GluN1/GluN2A NMDA receptor (Rattus norvegicus, UniProt P35439+Q00959)
Assay type: cell-based
Details: IC50 GluN1/GluN2A, [Gly] 10 μM, [L-Glu] 2.0 μM
measure-name: pIC50
Answers are plain numbers, as −log10 of the molar value.

Which pIC50 value belongs to O=C(O)c1cc2cc(Br)ccc2c(Br)c1O [UBP552, 1,6-Dibromo-2-hydroxy-3-naphthoic acid] ?
5.30

----------
Molecular target: GluN1/GluN2A NMDA receptor (Rattus norvegicus, UniProt P35439+Q00959)
Type: cell-based
Conditions: IC50 GluN1/GluN2A, [Gly] 10 μM, [L-Glu] 300 μM
measure-name: IC50

// IC50 lookup, key: O=C(O)c1cc2cc(Br)ccc2c(Br)c1O [UBP552, 1,6-Dibromo-2-hydroxy-3-naphthoic acid]
8.58 µM

----------
Target: GluN1/GluN2D NMDA receptor (Rattus norvegicus, UniProt P35439+Q62645)
Assay type: cell-based
Settings: 10 μM L-glutamate plus 10 μM glycine, ± s.e.m., n ≥ 4
measure-name: % Max. Inh. GluN1/GluN2D (%)
Answers are plain numbers, in %.

compound="O=C(O)c1cc(Br)c2ccc(Br)cc2c1 [UBP628, 1,6-Dibromo-3-naphthoic acid]" unit_string=% reported=112.4

The following compounds each have a reported value; give each one's % Max. Inh. GluN1/GluN2D.
1. O=C(O)c1cc2cc(Br)ccc2c(I)c1O [UBP620]
2. O=C(O)c1cc2cc(-c3ccccc3)ccc2c(I)c1O [UBP619]
3. O=C(O)c1cc2cc(Br)ccc2c(Br)c1O [UBP552, 1,6-Dibromo-2-hydroxy-3-naphthoic acid]

107.1
97.0
103.6

Every entry's value here was drawn from paper PMC3269548.
